The reported numbers originate from patent US9040707B2.

Target: human mGluR5 receptor (Homo sapiens, UniProt P41594)
Construct: expressed in transfected cells; host or cells: HEK-293
Sequence (P41594 21-1180 isoform P41594-2 limits assumed): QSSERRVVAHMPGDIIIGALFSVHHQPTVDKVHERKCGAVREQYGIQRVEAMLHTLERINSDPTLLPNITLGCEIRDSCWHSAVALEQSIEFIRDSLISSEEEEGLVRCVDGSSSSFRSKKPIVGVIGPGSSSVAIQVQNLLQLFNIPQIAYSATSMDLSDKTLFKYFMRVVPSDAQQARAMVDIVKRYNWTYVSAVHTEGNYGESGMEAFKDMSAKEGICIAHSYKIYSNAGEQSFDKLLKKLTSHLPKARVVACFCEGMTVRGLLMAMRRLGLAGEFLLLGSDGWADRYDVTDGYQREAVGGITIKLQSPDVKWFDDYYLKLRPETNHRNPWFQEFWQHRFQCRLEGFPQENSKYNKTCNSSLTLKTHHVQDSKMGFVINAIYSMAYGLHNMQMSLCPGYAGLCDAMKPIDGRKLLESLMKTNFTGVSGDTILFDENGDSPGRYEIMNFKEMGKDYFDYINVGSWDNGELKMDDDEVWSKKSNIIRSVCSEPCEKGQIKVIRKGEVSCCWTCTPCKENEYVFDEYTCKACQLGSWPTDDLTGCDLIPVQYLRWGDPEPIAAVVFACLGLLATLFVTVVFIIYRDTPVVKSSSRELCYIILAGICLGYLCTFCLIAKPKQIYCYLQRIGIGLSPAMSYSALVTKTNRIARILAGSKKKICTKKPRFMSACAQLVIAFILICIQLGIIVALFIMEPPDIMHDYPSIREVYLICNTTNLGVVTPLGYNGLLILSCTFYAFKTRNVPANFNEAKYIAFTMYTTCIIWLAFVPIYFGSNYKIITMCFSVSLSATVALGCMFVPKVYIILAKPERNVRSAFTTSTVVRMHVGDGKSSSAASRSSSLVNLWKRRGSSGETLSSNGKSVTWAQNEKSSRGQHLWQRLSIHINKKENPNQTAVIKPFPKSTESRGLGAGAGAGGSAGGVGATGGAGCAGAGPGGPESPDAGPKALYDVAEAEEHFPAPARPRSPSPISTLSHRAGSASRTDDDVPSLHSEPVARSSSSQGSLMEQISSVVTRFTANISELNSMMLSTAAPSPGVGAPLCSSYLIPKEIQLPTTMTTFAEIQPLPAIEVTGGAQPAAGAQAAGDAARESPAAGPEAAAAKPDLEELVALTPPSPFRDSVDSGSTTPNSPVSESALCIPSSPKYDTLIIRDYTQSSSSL
Assay: Functional Assay 1: intracellular Ca2+ mobilization, positive allosteric modulation of glutamate EC20 response
Format: cell-based
Settings: maximum % effect relative to glutamate ECMax
Counter-ions that a name gives are not always drawn.
Entries and their Emax
parameterMeasured: Emax (%)

> print(dat)
                                   molecule  unitlabel  observedmeasurement
1   O=C1c2sc(OCc3ccccc3)nc2CCN1Cc1ccc(F)cc1          %                   88
2  O=C1c2sc(OCc3ccc(C(F)(F)F)cc3)nc2CCN1c1ccc(F)cc1F          %                   27
3   O=C1c2sc(OCc3ccccc3)nc2CCN1Cc1cccc(F)c1          %                   67
4          Cc1ccc(COc2nc3c(s2)C(=O)NCC3)cc1          %                   10
5  O=C1c2sc(COc3ccc(Cl)cc3)nc2CCN1c1ccc(F)cc1          %                   28
6  O=C1NCCc2nc(OCc3cccc(F)c3)sc21 [Compound 70, trifluoroacetate]          %                   15
7  O=C1c2sc(OCc3ccccc3C(F)(F)F)nc2CCN1c1ccc(F)cc1F          %                   25
8    O=C1c2sc(OCc3ccccc3)nc2CCN1c1ccc(F)cc1          %                   64
9  COc1cccc(COc2nc3c(s2)C(=O)N(c2ccc(F)cc2F)CC3)c1          %                   26

###

parameterMeasured: melting point

> print(dat)
                                  smilestext  observedmeasurement
 1  O=C1c2sc(OCc3cccc(F)c3)nc2CCN1c1ccc(F)cc1F    121.1 to 122.7 °C
 2       O=C1c2sc(COc3cccc(F)c3)nc2CCN1C1CC1    243.9 to 245.7 °C
 3  O=C1c2sc(OCc3cccc(F)c3)nc2CCN1c1ccc(F)cc1    127.4 to 128.9 °C
 4   O=C1c2sc(OCc3ccccc3)nc2CCN1c1ccc(F)cc1F               135 °C
 5  O=C1c2sc(OCc3ccc(F)c(F)c3)nc2CCN1c1ccc(F)cc1F    136.9 to 137.2 °C
 6  O=C1c2sc(COc3ccc(F)cc3)nc2CCN1c1ccc(F)cn1    185.8 to 186.8 °C
 7  O=C1c2sc(COc3cccc(F)c3)nc2CCN1c1ccc(F)cn1    125.8 to 126.4 °C
 8   O=C1c2sc(COc3ccccc3F)nc2CCN1c1ccc(F)cc1             > 280 °C
 9      O=C1c2sc(COc3cccc(F)c3)nc2CCN1CC1CC1    275.4 to 277.8 °C
10  O=C1c2sc(COc3ccccc3F)nc2CCN1c1ccc(F)cc1F    100.1 to 105.2 °C
11             CN1CCCc2nc(COc3ccccc3)sc2C1=O             105.9 °C
12      O=C1c2sc(COc3ccc(F)cc3)nc2CCN1CC1CC1      254 to 259.1 °C
13         O=C1c2sc(COc3ccccc3)nc2CCN1CC1CC1    292.6 to 302.9 °C
14               O=C1NCCc2nc(COc3ccccc3)sc21             170.5 °C
15  O=C1c2sc(OCc3ccc(F)cc3F)nc2CCN1c1ccc(F)cc1F    104.3 to 107.2 °C
16  COc1ccccc1COc1nc2c(s1)C(=O)N(c1ccc(F)cc1F)CC2             > 280 °C
17  C[C@@H](N1CCc2nc(COc3ccccc3F)sc2C1=O)C(C)(C)C      98.4 to 99.6 °C
18  O=C1c2sc(COc3ccc(F)cc3)nc2CCN1c1ccc(F)cc1             > 280 °C
19   O=C1c2sc(OCc3ccccc3)nc2CCN1Cc1cccc(F)c1        80.1 to 82 °C
20  O=C1c2sc(OCc3cccc(F)c3)nc2CCN1c1ccc(C(F)(F)F)cc1      130 to 131.5 °C

###

Below: a set of entries, each annotated with reported pEC50.
Target: human mGluR5a receptor (Homo sapiens, UniProt P41594)
Construct: host or cells: HEK293A (monoclones H10H and H12H)
Sequence (P41594 21-1180 isoform P41594-2 limits assumed): as above
Test: Functional Assay 3: as Functional Assay 2 but clone H12H
Type: cell-based
Details: glutamate EC20
pEC50: −log10 of the molar value.
parameterMeasured: pEC50

> print(dat)
                                   molecule  comparisonoperator  observedmeasurement
1  O=C1c2sc(COc3ccccc3)nc2CCN1c1ccc(F)cc1 [Compound 9]                   =                 6.95
2  O=C1c2sc(OCc3cccc(F)c3)nc2CCN1c1cccc(C(F)(F)F)c1 [Compound 30]                   =                 6.03
3  C[C@@H](N1CCc2nc(OCc3cccc(F)c3)sc2C1=O)C(C)(C)C [Compound 77]                   <                 4.52
4  O=C1c2sc(COc3cccc(F)c3)nc2CCN1c1ccc(F)cc1F [Compound 28]                   =                 7.07
5  C[C@@H](N1CCc2nc(COc3ccccc3)sc2C1=O)C(C)(C)C [Compound 35]                   =                 6.10
6  C[C@@H](N1CCc2nc(COc3cccc(F)c3)sc2C1=O)C(C)(C)C [Compound 7]                   =                 5.85

###

Target: human mGluR5a receptor (Homo sapiens, UniProt P41594)
Construct: host or cells: HEK293A (monoclones H10H and H12H)
Assay: Functional Assay 2: Ca2+ mobilization, HEK cells with human mGluR5a receptor (H10H cell line)
Format: cell-based
Details: H10H cell line, glutamate EC20
parameterMeasured: EC50 (nM)

> print(dat)
                                   compound  comparisonoperator  observedmeasurement
1  COCCN1CCc2nc(COc3ccccc3)sc2C1=O [Compound 4]                   >                10000
2  O=C1c2sc(COc3cccc(F)c3)nc2CCN1c1ccc(F)cn1 [Compound 54]                   =                  288
3  O=C1c2sc(COc3ccc(F)cc3)nc2CCN1c1ccc(F)cc1 [Compound 6]                   =                  457
4  O=C1c2sc(COc3ccccc3F)nc2CCN1c1ccc(F)cc1 [Compound 31]                   =                  282
5  O=C1c2sc(COc3cccc(F)c3)nc2CCN1c1ccc(F)cc1 [Compound 25]                   =                  174

###

Biological target: human mGluR5a receptor (Homo sapiens, UniProt P41594)
Construct: host or cells: HEK293A (monoclones H10H and H12H)
Assay: Functional Assay 2: Ca2+ mobilization, HEK cells with human mGluR5a receptor (H10H cell line)
Format: cell-based
Details: H10H cell line, glutamate EC20
pEC50: −log10 of the molar value.
Use Y when the recorded pEC50 is no lower than 6; use N when it is lower.

> print(dat)
                                 smilestext  discretelabel
1    COc1ccccc1N1CCc2nc(COc3ccccc3F)sc2C1=O              N
2  O=C1c2sc(OCc3ccccc3F)nc2CCN1c1ccc(F)cc1F              Y
3   O=C1c2sc(OCc3ccccc3)nc2CCN1c1ccc(F)cc1F              Y
4         O=C1c2sc(COc3ccccc3)nc2CCN1CC1CC1              Y
5    O=C1c2sc(COc3ccccc3)nc2CCN1c1ccc(F)cn1              Y
6       O=C1c2sc(COc3cccc(F)c3)nc2CCN1C1CC1              N
7  O=C1c2sc(OCc3cc(F)cc(F)c3)nc2CCN1c1ccc(F)cc1F              N
8  Cc1cccc(COc2nc3c(s2)C(=O)N(c2ccc(F)cc2F)CC3)c1              Y
